- assay.overview: yeast display, Sf9 membrane polyspecificity reagent, FACS + sequencing; frameworks hold sequencing errors
value.kind: polyreactivity (PSR sort gate)

[
  {
    "biopolymer.sequence": "QVQLVESGGGLVQAGGSLRLSCAASGLIFGYYAMGWYRQAPGKERELVAAITSSGASTYYADSVKGRFTISRDNAKNSVYLQMNSLKPEDTAVYYCNKYRYRSLGYDYWGQGTQVTVSS",
    "polyreactivity (PSR sort gate)": "high polyreactivity"
  },
  {
    "biopolymer.sequence": "QVQLVESGGGLVQAGGSLRLSCADSGSIFGYYAMGRYRQAPGKERELVAAISDGGTITYYADSVKGRFTISRDNAKNTVYLQMNSLKPEDTAVYYCAARSPPRYYEHSYYYWGQGTQETVSS",
    "polyreactivity (PSR sort gate)": "high polyreactivity"
  },
  {
    "biopolymer.sequence": "QVQLVESGGRLVQAGGSLRLSCAASGLTLFRYDQGWYRQAPGKERELVAAIDYGGGTYYADSVKGRFTISRDNAKNTVYLQMNSLKPEDTAVYYCAVEPEYKYYEGDYWGQGTQVTVSS",
    "polyreactivity (PSR sort gate)": "low polyreactivity"
  },
  {
    "biopolymer.sequence": "QVQLVESGGGLVQAGGSLRLSCAASGRTFYRNDRGWYRQAPGKERELVAAITSSGGTTYADSVKGRFTISRDNAKNTVYLQMNSLKPEDTAVYYCNTVLYAYWQWDYEFDYWGQGTQVTVSS",
    "polyreactivity (PSR sort gate)": "low polyreactivity"
  }
]

API: the following record is the query input.
Entry QVQLVESGGGLVQAGGSLRLSCAPSGRIYATYAMGWYRQAPGKDSELVAAISDSGGRTYYADSVKGRFTISRDNAKNTVYLQMKSLKPEVNAVYYCAAKNGDRYARGYWGQGTQVNVSS : reported polyreactivity (PSR sort gate) = ?
high polyreactivity
